These entries and their values trace back to the supplement of paper PMC10567573.

Parameter protein stability index: see the listing below.
B1: KCTD10 (parent)
chain: SSKEEQKLIATSNKPAVKLLYNRS

variants of: B1; assay: protein stability index of a GFP-peptide fusion (GPS, HEK-293T) (PSI 1-6); higher = more stable; conditions: c terminus: a fixed tail appended;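 also: lentivirally expressed fusions sorted by FACS into six bins by GFP to DsRed ratio, PSI derived from sequencing read proportions per bin multiplied by bin number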

Specify protein stability index for `E4G` and stop.
3.46

Others:
Provide only the value of recorded protein stability index for `N22E`
4.22

Read the entry `K18P` and write its reported protein stability index.
4.25

Look up and state reported protein stability index for `E4D`
4.01

Give protein stability index for the following variant: `E4Y`
2.83
